# target_under_test: JMJD2C (Homo sapiens, UniProt Q9H3R0)
# Sequence (Q9H3R0 2-372): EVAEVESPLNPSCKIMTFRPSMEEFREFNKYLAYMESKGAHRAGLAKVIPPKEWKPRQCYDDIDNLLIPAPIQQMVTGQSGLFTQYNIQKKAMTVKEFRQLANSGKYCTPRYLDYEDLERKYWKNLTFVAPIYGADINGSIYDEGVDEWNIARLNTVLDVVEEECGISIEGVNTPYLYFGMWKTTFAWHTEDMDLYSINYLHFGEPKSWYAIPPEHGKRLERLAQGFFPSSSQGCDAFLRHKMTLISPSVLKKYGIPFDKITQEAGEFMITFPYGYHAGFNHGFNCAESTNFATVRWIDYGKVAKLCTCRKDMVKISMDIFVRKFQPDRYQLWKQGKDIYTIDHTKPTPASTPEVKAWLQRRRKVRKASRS
measurement_type: IC50

For "CC(C)CCn1cc(Oc2nc(O)c3ccncc3n2)cn1" , what is its reported IC50? ≤ 0.1 µM

Same thing, different compound: "Oc1nc(Oc2cnn([C@H]3CCN(c4ccccc4F)C3)c2)nc2cnccc12" ≤ 0.1 µM

Same thing, different compound: "Oc1nc(OCCOCC(F)(F)F)nc2cnccc12" 0.1 to 1 µM

Same thing, different compound: "Oc1nc(OCCCC(F)(F)F)nc2cnccc12" 0.1 to 1 µM

Same thing, different compound: "Oc1nc(OCc2c(Cl)cccc2Cl)nc2cnccc12" 1 to 10 µM

Same thing, different compound: "Oc1nc(OCCc2ccc(Cl)cc2)nc2cnccc12" 0.1 to 1 µM

Same thing, different compound: "Oc1nc(Oc2cnn(Cc3cccc(Cl)c3)c2)nc2cnccc12" ≤ 0.1 µM

Same thing, different compound: "CC(=O)Nc1ccc(Oc2nc(O)c3ccncc3n2)cc1" 0.1 to 1 µM

Same thing, different compound: "CCOc1nc(O)c2ccnc(-c3cn(C)cn3)c2n1" 0.1 to 1 µM

Same thing, different compound: "O=C(C1CC1)N1CC[C@H](n2cc(Oc3nc(O)c4ccncc4n3)cn2)C1" ≤ 0.1 µM

###

Target chain: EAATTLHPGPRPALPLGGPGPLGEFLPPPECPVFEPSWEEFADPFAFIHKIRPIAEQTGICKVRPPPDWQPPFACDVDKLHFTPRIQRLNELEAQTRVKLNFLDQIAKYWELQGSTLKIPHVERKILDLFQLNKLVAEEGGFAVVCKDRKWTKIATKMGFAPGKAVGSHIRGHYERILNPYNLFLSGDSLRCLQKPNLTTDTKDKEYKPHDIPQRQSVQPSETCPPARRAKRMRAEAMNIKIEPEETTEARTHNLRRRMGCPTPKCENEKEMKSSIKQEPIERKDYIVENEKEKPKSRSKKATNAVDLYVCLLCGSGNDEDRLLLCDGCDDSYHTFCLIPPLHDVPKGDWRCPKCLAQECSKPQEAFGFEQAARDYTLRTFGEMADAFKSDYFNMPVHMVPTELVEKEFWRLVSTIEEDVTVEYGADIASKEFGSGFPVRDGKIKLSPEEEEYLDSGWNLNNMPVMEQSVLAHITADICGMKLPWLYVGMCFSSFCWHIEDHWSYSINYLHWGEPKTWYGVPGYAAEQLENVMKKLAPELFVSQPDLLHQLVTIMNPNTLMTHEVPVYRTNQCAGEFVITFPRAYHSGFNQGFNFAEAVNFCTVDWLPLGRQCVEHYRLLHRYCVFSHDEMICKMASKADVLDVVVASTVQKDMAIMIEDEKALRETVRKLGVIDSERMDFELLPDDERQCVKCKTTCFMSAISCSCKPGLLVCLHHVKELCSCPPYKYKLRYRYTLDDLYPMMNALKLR
pIC50: −log10 of the molar value.
Record form. Attribute: pIC50. Fill in for each entry.

For Oc1nc(Oc2cnn([C@H]3CCNC3)c2)nc2cnccc12 [Example 135] , what is its reported pIC50? ≥ 7.00

Same thing, different compound: O=C(CO)N1CC[C@H](n2cc(Oc3nc(O)c4ccncc4n3)cn2)C1 [Example 155] ≥ 7.00

Same thing, different compound: O=C(C1CC1)N1CCC[C@@H](n2cc(Oc3nc(O)c4ccncc4n3)cn2)C1 [Example 156] ≥ 7.00

Same thing, different compound: CC(=O)N1CCC[C@@H](n2cc(Oc3nc(O)c4ccncc4n3)cn2)C1 [Example 153] ≥ 7.00

Same thing, different compound: COCCOc1nc(O)c2ccncc2n1 [Example 22] 6.00 to 7.00

Same thing, different compound: CCOc1nc(O)c2ccnc(-c3cn(C)cn3)c2n1 [Example 69] ≥ 7.00

Same thing, different compound: Oc1nc(OCC2CCCc3ccccc32)nc2cnccc12 (stereo not shown) [Example 188] 6.00 to 7.00

Same thing, different compound: O=S(=O)(c1ccccc1)N1CCC(n2cc(Oc3nc(O)c4ccncc4n3)cn2)CC1 [Example 95] ≥ 7.00

Same thing, different compound: CNCC(=O)N1CC[C@H](n2cc(Oc3nc(O)c4ccncc4n3)cn2)C1 [Example 144] ≥ 7.00

Same thing, different compound: Oc1nc(OCC2CCCO2)nc2cnccc12 (stereo not shown) [Example 26] 5.00 to 6.00

###

Record form. Attribute: pIC50. Fill in for each entry.
# Test system: KDM5A/B
# assay_remarks: In vitro cell-based assay: immuno-blot quantification of tri-methyl H3K4 in ZR-75-1 breast cancer cells
# run_parameters: 72 hours, tri-methyl H3K4 level relative to GAPDH, percent of DMSO, read-out: Cellular IC50
pIC50: −log10 of the molar value.

For "CCOc1nc(O)c2ccnc(-c3cn(C)cn3)c2n1" , what is its reported pIC50? < 5.00

Same thing, different molecule: "O=C(C1CC1)N1CC[C@H](n2cc(Oc3nc(O)c4ccncc4n3)cn2)C1" < 5.00

Same thing, different molecule: "Cn1cnc(-c2nccc3c(O)nc(OCCCC(F)(F)F)nc23)c1" 6.00 to 7.00

Same thing, different molecule: "O=C(CO)N1CC[C@H](n2cc(Oc3nc(O)c4ccncc4n3)cn2)C1" 5.00 to 6.00

Same thing, different molecule: "Oc1nc(Oc2cnn([C@@H]3CCNC3)c2)nc2cnccc12" < 5.00

Same thing, different molecule: "COc1ccc(Oc2nc(O)c3ccncc3n2)cc1" < 5.00

Same thing, different molecule: "Oc1nc(Oc2cnn(Cc3ccccc3Cl)c2)nc2cnccc12" 5.00 to 6.00

Same thing, different molecule: "O=C(C1CC1)N1CC[C@@H](n2cc(Oc3nc(O)c4ccncc4n3)cn2)C1" 5.00 to 6.00

Same thing, different molecule: "O=S(=O)(C1CC1)N1CC[C@H](n2cc(Oc3nc(O)c4ccncc4n3)cn2)C1" 6.00 to 7.00

###

# Tested on: KDM5A/B
# assay_remarks: In vitro cell-based assay: immuno-blot quantification of tri-methyl H3K4 in ZR-75-1 breast cancer cells
# run_parameters: 72 hours, tri-methyl H3K4 level relative to GAPDH, percent of DMSO, read-out: Cellular IC50
measurement_type: IC50

For "Oc1nc(Oc2cnn(Cc3cccc(Cl)c3)c2)nc2cnccc12" , what is its reported IC50? 1 to 10 µM

Same thing, different compound: "C[C@H](c1ccccc1F)n1cc(Oc2nc(O)c3ccncc3n2)cn1" 0.1 to 1 µM

Same thing, different compound: "Oc1nc(Oc2ccc(F)c(F)c2)nc2cnccc12" > 10 µM

Same thing, different compound: "Oc1nc(Oc2ccc(F)cc2)nc2cnccc12" > 10 µM

Same thing, different compound: "Oc1nc(Oc2cnn([C@@H]3CCCN(Cc4ccccc4)C3)c2)nc2cnccc12" 0.1 to 1 µM

Same thing, different compound: "CCS(=O)(=O)N1CC[C@@H](n2cc(Oc3nc(O)c4ccncc4n3)cn2)C1" > 10 µM

Same thing, different compound: "Oc1nc(OCCCC(F)(F)F)nc2cnccc12" > 10 µM

Same thing, different compound: "CCc1cccc(Oc2nc(O)c3ccncc3n2)c1" > 10 µM

Same thing, different compound: "Oc1nc(OCCC(F)(F)F)nc2cnccc12" > 10 µM

Same thing, different compound: Oc1nc(Oc2ccccc2)nc2cnccc12 [Example 34, 2-phenoxypyrido[3,4-d]pyrimidin-4-ol] > 10 µM

Same thing, different compound: "CC(=O)N1CC[C@@H](n2cc(Oc3nc(O)c4ccncc4n3)cn2)C1" > 10 µM

Same thing, different compound: "O=S(=O)(C1CC1)N1CCC[C@H](n2cc(Oc3nc(O)c4ccncc4n3)cn2)C1" 0.1 to 1 µM

Same thing, different compound: "CC(C)(C)OC(=O)N1CCC(n2cc(Oc3nc(O)c4ccncc4n3)cn2)CC1" 1 to 10 µM

Same thing, different compound: "Oc1nc(Oc2cnn([C@H]3CCN(c4ccccc4)C3)c2)nc2cnccc12" 1 to 10 µM

###

# target_under_test: JMJD2C (Homo sapiens, UniProt Q9H3R0)
Record form. Attribute: IC50. Fill in for each entry.

For Oc1nc(Oc2cnn([C@@H]3CCN(c4ccc(F)cc4)C3)c2)nc2cnccc12 [Example 134] , what is its reported IC50? ≤ 100 nM

Same thing, different compound: Oc1nc(OCc2cccc(Cl)c2Cl)nc2cnccc12 [Example 173] ≤ 100 nM

Same thing, different compound: Oc1nc(OC(c2ccccc2)C(F)(F)F)nc2cnccc12 (stereo not shown) [Example 176] ≤ 100 nM

Same thing, different compound: CC(C)(C)OC(=O)N1CCC(n2cc(Oc3nc(O)c4ccncc4n3)cn2)CC1 [Example 88] 100 to 1000 nM

Same thing, different compound: Oc1nc(OCC2CCOC2)nc2cnccc12 (stereo not shown) [Example 27] 100 to 1000 nM

Same thing, different compound: O=C(C1CC1)N1CCC[C@@H](n2cc(Oc3nc(O)c4ccncc4n3)cn2)C1 [Example 156] ≤ 100 nM

Same thing, different compound: CN(C)c1ccc(Oc2nc(O)c3ccncc3n2)cc1 [Example 59] 100 to 1000 nM

Same thing, different compound: CCS(=O)(=O)N1CC[C@@H](n2cc(Oc3nc(O)c4ccncc4n3)cn2)C1 [Example 126] ≤ 100 nM

Same thing, different compound: OCCOc1nc(O)c2ccncc2n1 [Example 3] 100 to 1000 nM

Same thing, different compound: Oc1nc(Oc2cccc(Cl)c2)nc2cnccc12 [Example 41] 100 to 1000 nM
